# IC50 per record follows
- Measurement target: H1047R PIK3CA enzyme (Homo sapiens, UniProt P42336, H1047R)
- Sequence (P42336 whole entry H1047R): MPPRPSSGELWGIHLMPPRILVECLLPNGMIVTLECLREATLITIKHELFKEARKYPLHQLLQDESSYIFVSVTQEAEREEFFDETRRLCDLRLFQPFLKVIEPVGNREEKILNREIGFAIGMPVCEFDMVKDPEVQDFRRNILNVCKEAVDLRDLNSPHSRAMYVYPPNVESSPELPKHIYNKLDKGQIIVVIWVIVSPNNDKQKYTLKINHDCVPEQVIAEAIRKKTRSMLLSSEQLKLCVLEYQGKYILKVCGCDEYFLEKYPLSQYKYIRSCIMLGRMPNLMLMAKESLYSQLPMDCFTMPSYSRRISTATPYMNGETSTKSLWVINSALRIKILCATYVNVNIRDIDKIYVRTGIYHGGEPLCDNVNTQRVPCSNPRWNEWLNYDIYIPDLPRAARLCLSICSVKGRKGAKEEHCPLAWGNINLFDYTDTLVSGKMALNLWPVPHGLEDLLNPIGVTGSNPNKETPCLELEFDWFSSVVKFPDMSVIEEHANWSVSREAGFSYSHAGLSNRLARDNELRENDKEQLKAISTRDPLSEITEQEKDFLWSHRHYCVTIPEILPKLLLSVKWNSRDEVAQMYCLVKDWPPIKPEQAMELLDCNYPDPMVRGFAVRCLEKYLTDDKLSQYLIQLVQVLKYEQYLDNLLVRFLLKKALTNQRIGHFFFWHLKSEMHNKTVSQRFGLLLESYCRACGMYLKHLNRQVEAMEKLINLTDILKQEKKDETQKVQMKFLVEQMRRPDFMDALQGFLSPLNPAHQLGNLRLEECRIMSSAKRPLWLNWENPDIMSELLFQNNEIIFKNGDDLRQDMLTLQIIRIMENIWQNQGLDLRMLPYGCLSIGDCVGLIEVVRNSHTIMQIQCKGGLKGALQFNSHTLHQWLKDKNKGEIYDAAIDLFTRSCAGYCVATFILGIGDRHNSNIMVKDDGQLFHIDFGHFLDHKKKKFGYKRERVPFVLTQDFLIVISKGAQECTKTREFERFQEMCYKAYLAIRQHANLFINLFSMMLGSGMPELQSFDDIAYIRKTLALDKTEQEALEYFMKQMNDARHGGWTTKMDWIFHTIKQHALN
- Sequence (P27986 whole entry partner): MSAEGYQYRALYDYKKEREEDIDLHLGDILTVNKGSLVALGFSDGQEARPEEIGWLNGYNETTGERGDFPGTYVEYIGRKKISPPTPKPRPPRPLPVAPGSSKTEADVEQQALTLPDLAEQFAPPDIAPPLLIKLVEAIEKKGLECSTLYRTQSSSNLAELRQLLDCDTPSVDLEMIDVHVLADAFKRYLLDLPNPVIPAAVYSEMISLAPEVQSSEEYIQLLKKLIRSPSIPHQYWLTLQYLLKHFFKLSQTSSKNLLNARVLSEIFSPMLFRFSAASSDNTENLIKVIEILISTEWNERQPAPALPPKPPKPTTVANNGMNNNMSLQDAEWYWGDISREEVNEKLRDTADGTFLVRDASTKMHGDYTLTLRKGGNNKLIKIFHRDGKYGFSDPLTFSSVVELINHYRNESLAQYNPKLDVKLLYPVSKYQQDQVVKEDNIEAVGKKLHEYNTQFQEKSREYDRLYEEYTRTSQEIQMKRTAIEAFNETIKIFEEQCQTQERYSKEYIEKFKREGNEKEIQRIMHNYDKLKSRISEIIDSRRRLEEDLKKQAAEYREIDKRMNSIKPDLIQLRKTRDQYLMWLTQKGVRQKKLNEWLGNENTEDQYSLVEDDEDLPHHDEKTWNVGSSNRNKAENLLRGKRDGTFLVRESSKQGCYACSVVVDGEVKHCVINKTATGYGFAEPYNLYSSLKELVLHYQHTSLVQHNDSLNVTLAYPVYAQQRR
- Procedure summary: ADP-Glo Biochemical PIK3CA Kinase Assay

N#CCCn1cc(-c2cc(NC(=O)c3cc(F)cc(C(F)(F)F)c3)c3c(c2)C(=O)NC3c2cc(F)ccc2Cl)cn1 (stereo not drawn) [Compound I-1397] : ≤ 100 nM
N#Cc1cc(NC(=O)N2C[C@@H](O)c3cc(F)ccc32)c2c(c1)C(=O)N[C@H]2c1cc(F)ccc1Cl (single isomer, unassigned) [Compound I-2493] : 100 to 500 nM
[2H]C([2H])(c1cc(NC(=O)c2cc(F)cc(C(F)(F)F)c2)c2c(c1)C(=O)N[C@H]2c1cc(F)ccc1Cl)S(C)(=O)=O (single isomer, unassigned) [Compound I-1789] : ≤ 100 nM
O=C1NC(c2cc(F)ccc2Cl)c2c(NC(=O)C3CC4(C3)CC(F)(F)C4)cc(Br)cc21 (stereo not drawn) [Compound I-1622] : 1000 to 10000 nM
O=C(Nc1cc(Br)cc2c1C(c1cc(F)ccc1Cl)NC2=O)c1cc(F)cc(Cl)c1O (stereo not drawn) [Compound I-845] : 500 to 1000 nM

Shift focus to the following entry.
[ask] I would be grateful if you could share the reported IC50 for O=C(Nc1cccc2c1C(Cc1ccccc1)NC2=O)c1cc(F)cc(C(F)(F)F)c1 (stereo not drawn) [Compound I-1673] .
[reply] 10000 to 100000 nM

These entries and their values trace back to patent US12581252B2.
